Test system: 873145-292-R-J1-PDC complex spheroid viability;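 also: luminescence signal used as surrogate for viable cell content; spheroids exposed to compounds for 7 days before viability readout; 100% = DMSO vehicle control viability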
Test: Anticancer human tumor 873145-292-R-J1-PDC patient-derived renal clear cell carcinoma cell line growth inhibition [POLQ]
Settings: second compound 10 µM; first compound 0.316 µM; active compounds read low
A collection of molecules and their measured viability, T/C

{"MOLECULE": "COc1ccc([C@@H](O)c2cc(-c3ncnc4cc(N5CCOCC5)ccc34)c(F)cc2Cl)nn1 + COC1C(OC(N)=O)C(O)C(Oc2ccc3c(O)c(NC(=O)c4ccc(O)c(CC=C(C)C)c4)c(=O)oc3c2C)OC1(C)C", "ASSAY SYSTEM": "873145-292-R-J1-PDC complex spheroid viability", "UNIT NAME": "%", "viability, T/C": 88.7}
{"MOLECULE": "CNCc1ccc(-c2[nH]c3cc(F)cc4c3c2CCNC4=O)cc1 + Cc1cccc(N(C)C(=O)C2C(O)CCN2c2nc(C)cc(C(F)(F)F)c2C#N)c1", "ASSAY SYSTEM": "873145-292-R-J1-PDC complex spheroid viability", "UNIT NAME": "%", "viability, T/C": 106}
{"MOLECULE": "CCc1c2c(nc3ccc(O)cc13)-c1cc3c(c(=O)n1C2)COC(=O)[C@]3(O)CC + COC1C(OC(N)=O)C(O)C(Oc2ccc3c(O)c(NC(=O)c4ccc(O)c(CC=C(C)C)c4)c(=O)oc3c2C)OC1(C)C", "ASSAY SYSTEM": "873145-292-R-J1-PDC complex spheroid viability", "UNIT NAME": "%", "viability, T/C": 39.2}
{"MOLECULE": "C=CC(=O)N1CCN(c2nc(=O)n(-c3c(C)ccnc3C(C)C)c3nc(-c4c(O)cccc4F)c(F)cc23)C(C)C1 (stereo unspecified) + Nc1ccc(C#CCN(C(=O)Cc2ncc(C(F)(F)F)cc2C(F)(F)F)c2ccc(F)cc2)nn1", "ASSAY SYSTEM": "873145-292-R-J1-PDC complex spheroid viability", "UNIT NAME": "%", "viability, T/C": 119}
{"MOLECULE": "COc1cc2cc(C(=O)CCC(=O)O)sc2cc1OC + Cc1cccc(N(C)C(=O)C2C(O)CCN2c2nc(C)cc(C(F)(F)F)c2C#N)c1", "ASSAY SYSTEM": "873145-292-R-J1-PDC complex spheroid viability", "UNIT NAME": "%", "viability, T/C": 102}
{"MOLECULE": "Nc1ccn(C2OC(CO)C(O)C2(F)F)c(=O)n1 (stereo unspecified) + COC1C(OC(N)=O)C(O)C(Oc2ccc3c(O)c(NC(=O)c4ccc(O)c(CC=C(C)C)c4)c(=O)oc3c2C)OC1(C)C", "ASSAY SYSTEM": "873145-292-R-J1-PDC complex spheroid viability", "UNIT NAME": "%", "viability, T/C": 52.2}
{"MOLECULE": "COc1cc(C2c3cc4c(cc3C(OC3OC5COC(C)OC5C(O)C3O)C3COC(=O)C23)OCO4)cc(OC)c1O (stereo unspecified) + Cc1cccc(N(C)C(=O)C2C(O)CCN2c2nc(C)cc(C(F)(F)F)c2C#N)c1", "ASSAY SYSTEM": "873145-292-R-J1-PDC complex spheroid viability", "UNIT NAME": "%", "viability, T/C": 81.6}
{"MOLECULE": "Nc1ccn(C2OC(CO)C(O)C2(F)F)c(=O)n1 (stereo unspecified) + Nc1ccc(C#CCN(C(=O)Cc2ncc(C(F)(F)F)cc2C(F)(F)F)c2ccc(F)cc2)nn1", "ASSAY SYSTEM": "873145-292-R-J1-PDC complex spheroid viability", "UNIT NAME": "%", "viability, T/C": 61.4}
{"MOLECULE": "O=c1[nH]cc(F)c(=O)[nH]1 + Nc1ccc(C#CCN(C(=O)Cc2ncc(C(F)(F)F)cc2C(F)(F)F)c2ccc(F)cc2)nn1", "ASSAY SYSTEM": "873145-292-R-J1-PDC complex spheroid viability", "UNIT NAME": "%", "viability, T/C": 132}
{"MOLECULE": "C#Cc1c(F)ccc2cc(O)cc(-c3ncc4c(N5CC6CCC(C5)N6)nc(OCC56CCCN5CC(F)C6)nc4c3F)c12 (stereo unspecified) + Cc1cccc(N(C)C(=O)C2C(O)CCN2c2nc(C)cc(C(F)(F)F)c2C#N)c1", "ASSAY SYSTEM": "873145-292-R-J1-PDC complex spheroid viability", "UNIT NAME": "%", "viability, T/C": 95.8}
{"MOLECULE": "CC1COCCN1c1cc(-c2ccnn2C)c2ccnc(-c3ccn[nH]3)c2n1 (stereo unspecified) + COC1C(OC(N)=O)C(O)C(Oc2ccc3c(O)c(NC(=O)c4ccc(O)c(CC=C(C)C)c4)c(=O)oc3c2C)OC1(C)C", "ASSAY SYSTEM": "873145-292-R-J1-PDC complex spheroid viability", "UNIT NAME": "%", "viability, T/C": 67.2}
